Target: lambda CI repressor (Bacteriophage lambda, UniProt P03034 1-237)
Sequence (P03034 whole entry): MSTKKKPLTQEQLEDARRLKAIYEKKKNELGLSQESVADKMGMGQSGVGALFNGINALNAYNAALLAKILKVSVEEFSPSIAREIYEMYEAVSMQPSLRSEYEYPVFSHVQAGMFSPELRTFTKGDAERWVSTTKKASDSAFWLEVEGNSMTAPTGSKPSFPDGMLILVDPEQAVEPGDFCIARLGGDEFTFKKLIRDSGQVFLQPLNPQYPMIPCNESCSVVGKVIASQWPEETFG
Test: EMSA; apparent Kd; text gives error 3.10; EMSA: 10 mM HEPES, 150 mM NaCl, pH 7.4; 50 nM DNA, 0.4-40 uM CI; 20 min at room temperature; 10% polyacrylamide gel, 1x TBE pH 8.3, SYBR Safe stain
Details: protein: recombinant; tags: His-tag, TEV cleavage site with linker (pET 29b+); chain copies: 2; label: none (SYBR Safe stain)
measured_quantity: Kd

Field Kd (entry SOR3 (Stx2I OR3) (dsDNA) DNA 1: GGTTATTATGGGGGCGAATTCTTTGCGCTGCAAGTGC DNA 2: GCACTTGCAGCGCAAAGAATTCGCCCCCATAATAACC ) reads 7.68 µM

All values here come from paper PMC10742460.
